Target desc: EPHB1 (UniProt P54762)
Sequence (P54762 whole entry, looked up): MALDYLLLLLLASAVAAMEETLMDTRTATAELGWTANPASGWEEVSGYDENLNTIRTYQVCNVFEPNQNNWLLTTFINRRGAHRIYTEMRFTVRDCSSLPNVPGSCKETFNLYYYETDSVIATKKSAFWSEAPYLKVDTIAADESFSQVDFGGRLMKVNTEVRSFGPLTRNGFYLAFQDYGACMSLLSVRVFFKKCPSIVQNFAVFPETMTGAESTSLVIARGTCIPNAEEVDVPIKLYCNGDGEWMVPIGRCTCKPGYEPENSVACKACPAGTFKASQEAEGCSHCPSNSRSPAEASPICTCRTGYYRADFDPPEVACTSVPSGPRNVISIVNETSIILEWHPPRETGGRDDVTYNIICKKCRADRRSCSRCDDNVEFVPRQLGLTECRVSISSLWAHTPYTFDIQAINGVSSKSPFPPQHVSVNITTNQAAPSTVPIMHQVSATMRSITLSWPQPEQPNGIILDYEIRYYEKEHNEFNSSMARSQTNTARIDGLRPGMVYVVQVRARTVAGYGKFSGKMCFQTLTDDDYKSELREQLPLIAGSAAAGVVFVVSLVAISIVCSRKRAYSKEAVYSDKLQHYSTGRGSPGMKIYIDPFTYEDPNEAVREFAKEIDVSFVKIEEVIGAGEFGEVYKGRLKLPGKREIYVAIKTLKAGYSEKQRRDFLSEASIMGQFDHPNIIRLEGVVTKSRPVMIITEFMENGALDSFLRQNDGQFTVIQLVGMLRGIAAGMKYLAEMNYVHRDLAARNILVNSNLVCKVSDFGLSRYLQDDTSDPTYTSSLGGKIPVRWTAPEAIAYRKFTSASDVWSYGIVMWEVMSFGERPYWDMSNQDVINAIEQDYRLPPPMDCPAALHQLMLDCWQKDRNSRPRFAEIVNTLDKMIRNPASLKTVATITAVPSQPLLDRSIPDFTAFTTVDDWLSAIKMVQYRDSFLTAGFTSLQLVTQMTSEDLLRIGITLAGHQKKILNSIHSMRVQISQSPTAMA
Method description: phosphorylation enrichment, bacterial display (enrichment ratio); higher = better substrate or ligand; peptides without Tyr show the background;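 also: 11-residue human phosphosite peptides and single-mutation variants displayed on the E. coli surface, counted by deep sequencing, each peptide's frequency after selection divided by its frequency in the unselected input library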;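 also: frequency after pTyr selection over input frequency; kinase dosed for 20-30% of maximal phosphorylation in three min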
If the reported phosphorylation enrichment equals or exceeds 0.7, assign true. If not, assign false.

Would you please look over these solved cases?
Monomer sequence | Target desc | Class label
RDMNACIRPSP [MMAA_Y207_Y207C] | EPHB1 (UniProt P54762) | true
NARGLYFKLHN [GATA2_Y376_C373R_YF] | EPHB1 (UniProt P54762) | false
LFSGDCFRIQG [DDR2_Y740_Y740C_YF] | EPHB1 (UniProt P54762) | false

Q) Is reported phosphorylation enrichment greater than or equal to 0.7 here: RVQQIYSDSDL [MIB1_Y376]
A) true

Q) Identify whether the reported phosphorylation enrichment of the following sequence is 0.7 or greater: ENKGVYVLMSG [IVD_Y277]
A) true

Q) Does the sequence DFPMGYPSFLA [TBCK_Y153_I151M_YF] have recorded phosphorylation enrichment that is 0.7 or more?
A) false

Q) Quick check, phosphorylation enrichment >= 0.7? QWQQLYDTLNA [EIF3M_Y351]
A) true

----------
System: AncSZ
Method description: phosphorylation enrichment, bacterial display (enrichment ratio); higher = better substrate or ligand; peptides without Tyr show the background
Label T when phosphorylation enrichment is at or above 1; anything below gets F.

Use the examples below as a reference point.
Monomer sequence | Class label
IHRWVYPLTPE [EIF2B5_Y319_R315H] | T
NQNIGYELGHR [KCNN3_Y268_K269E] | F
RVDRDYVLKSA [HTATIP2_Y111] | T
RLLRGYDQLAF [HLA-C_Y137_S140L_YF] | F
IRQDDYESLKE [MTR_Y921_H920D] | T
LEQRPYRRGSE [KCNJ12_Y427_E430G] | F
ADDSYYTARSA [ZAP70_Y493] | F
AKIDGYIISYR | T
MRNDLYQTPLH [NFKB1_Y582] | T
KPGVNYYFQVS | T

Q) Confirm if phosphorylation enrichment reported for the sequence PTDSVYVMPTV [MYO7A_Y1668] is 1 or above.
A) T

Q) Is phosphorylation enrichment at least 1? Consider EEGNPYYSSTR [MCCC2_Y520_A524T]
A) T

Q) In plain terms: is recorded phosphorylation enrichment at least 1 for RHSGSYFVTSV [APC_Y2838_L2839F] ?
A) F

----------
System: Fer (mouse)
Method description: phosphorylation enrichment, bacterial display (enrichment ratio); higher = better substrate or ligand; peptides without Tyr show the background
Label True for high-side phosphorylation enrichment (at or above 0.5) and False for low-side phosphorylation enrichment (below it).

# example entries with known answers
Monomer sequence | Target desc | Class label
AKAFIYASHIV [ZNF573_Y229_G224A] | Fer (mouse) | True
SRNSKYNAEST [PSEN1_Y315_K311R] | Fer (mouse) | False
PEADKYHLTFA [FGG_Y300_R301H_YF] | Fer (mouse) | True
KFWREYILSLE [GPC3_Y299_YF] | Fer (mouse) | False

Q) # check: phosphorylation enrichment of QLAPQYTFTQG [FLNA_Y1761_A1764T_YF] is greater than or equal to 0.5
A) True

Q) Given the entry IMAYFYMCDSA [CASD1_Y382_R386S] , answer whether its phosphorylation enrichment meets or surpasses 0.5.
A) True

Q) Is reported phosphorylation enrichment greater than or equal to 0.5 here: VVEDGYEFFAK [PPP1CB_Y254]
A) False

Q) Entry MILSAYALGGL [CPS1_Y590_R587L] : is its phosphorylation enrichment no less than 0.5?
A) True

Hello, the source for this data is the supplement of paper PMC10065799, in case you need it.
